Where these numbers come from: PubChem BioAssay

target: Voltage-gated potassium channel subunit beta-2 (Rattus norvegicus) (UniProt P62483); assay: inhibitors of rat Kvbeta2 reductase activity – biochemical, NADPH fluorescence, primary screen (AID 622); conditions: recombinant KvBeta, 4-cyanobenzaldehyde reduction, at 10 µM, stronger effect = higher value;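 further: slope of raw intensity against log time taken from 70 to 1610 s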
Sequence (P62483 whole entry, looked up): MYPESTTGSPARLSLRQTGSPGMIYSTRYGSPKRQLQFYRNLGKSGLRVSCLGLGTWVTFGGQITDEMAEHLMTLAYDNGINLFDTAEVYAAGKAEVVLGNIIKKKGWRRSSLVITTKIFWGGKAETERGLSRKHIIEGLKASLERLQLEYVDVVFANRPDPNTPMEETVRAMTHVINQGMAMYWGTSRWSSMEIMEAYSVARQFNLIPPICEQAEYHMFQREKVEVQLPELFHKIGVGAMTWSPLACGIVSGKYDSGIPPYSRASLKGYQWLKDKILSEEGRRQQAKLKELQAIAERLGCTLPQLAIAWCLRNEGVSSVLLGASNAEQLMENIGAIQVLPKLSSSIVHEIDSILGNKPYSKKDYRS
fluorescence slope: recorded values

MOLECULE	fluorescence slope
CCOC(=O)N1CCC(NC(=O)C2CCC(Cn3c(=O)[nH]c4ccccc4c3=O)CC2)CC1 (stereo unspecified)	-0.546
O=C(CSc1nc(C2CCCCC2)n(-c2ccccc2)n1)NCCN1C(=O)CSC1=O	-0.572
O=C(NCCc1ccccc1)c1cc(-c2ccco2)on1	-0.473
C1=CC2CC1CC2CN1CCN(c2ccccc2)CC1 (stereo unspecified)	-0.479
COC(=O)C1=C(C)OC(N)=C(C#N)C1c1ccccc1 (stereo unspecified)	-0.568
Cc1ccccc1NS(=O)(=O)c1cc(C(=O)N2CCCC2)ccc1C	-0.601
O=c1oc2c3c4c(cc2cc1-c1nc2ccccc2[nH]1)CCCN4CCC3	-0.308
COc1ccc2nc(NC(=O)CSc3nnc(-c4ccoc4C)n3C)sc2c1	-0.563
CCOc1ccc(C2CC(c3ccccc3C)n3nc(N)nc3N2)cc1 (stereo unspecified)	-0.586
CC(=O)N1CCc2c(sc(NC(=O)c3ccc(S(=O)(=O)N(C)C)cc3)c2C#N)C1	-0.52
COCC(=O)N(Cc1ccccc1)c1ccccn1	-0.599

----------
assay: reduction of polyQ htt aggregates in cells – imaging, exon1htt(103Q)mCFP cells, high-content imaging, primary screen (AID 483); settings: exon1htt(103Q)mCFP cell line, aggregate imaging, at 2 µM; measured here: cell count, toxicity;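 further: compound exposure lasted 3 days before fixation; percent of the per-plate median nuclei count of sample wells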
ATTRIBUTE MEASURED: nuclei count

COMPOUND	RESULT
CCC1C(=O)n2nc(-c3ccccc3)cc2N=C1C (stereo not drawn)	102%
O=C(Nc1ccc2c(c1)OCO2)N1CCN(c2ncccn2)CC1	107%
CC1CCCC(NC(=O)CSc2ncccc2C(=O)O)C1C (stereo not drawn)	117%
O=C(Nc1cccnc1)Nc1ccc(F)c(Cl)c1	94.2%
O=C(NCc1ccco1)c1cccc(S(=O)(=O)N2CCCCC2)c1	112%
Nn1c(SCC(=O)Nc2ccc(S(=O)(=O)N3CCCC3)cc2)nnc1C(F)(F)F	104%
CCCCc1ccc(NC(=O)C2CCCO2)cc1 (stereo not drawn)	105%
CN(C)S(=O)(=O)Nc1ccccc1C(N)=O	102%
CC(Oc1ccc(Br)cc1)C(=O)N1CCc2ccccc21 (stereo not drawn)	104%
COC(=O)c1cccc(NC(=O)C2COc3ccccc3O2)c1C (stereo not drawn)	102%
CCSc1nc(O)c(CC)c(=O)n1C(C)CC (stereo not drawn)	112%
CC(=O)Nc1cccc(NC(=O)CSc2nnnn2C)c1	104%
O=C(Cn1ccc2ccccc2c1=O)NCCC(=O)N1CCN(C(=O)c2ccco2)CC1	98.1%
Cc1ccc(N(Cc2ccco2)C(=O)c2cccc(S(=O)(=O)N(C)C)c2)cc1	103%
CC1=Nn2c(nnc2-c2cc(-c3ccccc3)n[nH]2)SC1	81.3%
COc1ccc2c(c1)CCc1cc(C(=O)N3CCN(c4ccc(N5CCOCC5)nn4)CC3)sc1-2	127%
O=C(Nc1ccccc1Cl)c1c(F)c(F)c(F)c(F)c1F	103%
O=C(Nc1cccc(OCC(=O)N2CCOCC2)c1)C1CCCCC1	95.1%
CCC(C)(C)NC(=O)C(OC(=O)c1ccco1)c1ccccc1OC (stereo not drawn)	87.5%
COc1cccc(N(C(=O)c2ccco2)C(C(=O)NC2CCCC2)c2ccc(N(C)C)cc2)c1 (stereo not drawn)	98.6%
CCCN(CCC)c1nc2ccccc2n2c(C)nnc12	76.7%
COC(=O)C1=C(C)NC(C)=C(C(=O)OC)C1c1cc2cc(C)ccc2[nH]c1=O	102%
Cc1noc(NS(=O)(=O)c2ccc(NC(=O)CCC3CCCC3)cc2)c1C	83.5%

----------
test: TLR3 IRF3 reporter activation blockers – cell-based, poly I:C stimulus, luciferase, 10K MLSCN set, primary screen (AID 602277); conditions: HEK293-TLR3 RL24 IRF3 luciferase reporter, at 10 µM, stronger effect = higher value
ATTRIBUTE MEASURED: inhibition (%)

COMPOUND	RESULT NUMBER
COC(=O)C1=C(C)NC(=O)C1(NC(=O)CN1CCCC1=O)C(F)(F)F (stereo not given)	21.7
O=C(CN1C(=O)CCSc2ccccc21)Nc1ccc(F)cc1	2.08
CCC(C(=O)NC1CCCC1)N(Cc1ccco1)C(=O)Cn1nnc(-c2ccc(C)cc2)n1 (stereo not given)	-7.83
COC(=O)c1ccc(COC(=O)c2c(C)nn(Cc3ccccc3Cl)c2Cl)o1	19.2
CC1CCN(CC(O)COC2CCC(C(C)(C)C)CC2)CC1 (stereo not given)	-5.56
O=C(OC1CCOC1=O)c1ccc2ccccc2n1 (stereo not given)	29.1
COc1ccc2c(=O)c3c(=O)n(Cc4ccco4)c(-c4cc(OC)c(OC)c(OC)c4)nc3oc2c1	-1.04
COC(=O)c1cc(-c2c(C)nn(-c3ccccc3)c2C)n[nH]1	-66.7
CCCCn1c(CN(C)Cc2ccccc2)nc2c1c(=O)n(C)c(=O)n2C	-58.3
O=C(NC1CCCCC1)c1nc2c(nnn2Cc2ccccc2Cl)c(=O)[nH]1	6.18

----------
target: Voltage-gated potassium channel subunit beta-2 (Rattus norvegicus) (UniProt P62483); experiment: inhibitors of rat Kvbeta2 reductase activity – biochemical, NADPH fluorescence, primary screen (AID 622); details: recombinant KvBeta, 4-cyanobenzaldehyde reduction, at 10 µM, stronger effect = higher value;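 further: slope of raw intensity against log time taken from 70 to 1610 s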
Label rule, in plain words: fluorescence slope of -0.5 and up is True, under -0.5 is False.

MOLECULE	CATEGORY LABEL
Cc1ccc(NC(=O)COS(=O)c2ccc(C)cc2)cc1 (stereo not drawn)	False
Cc1cc(C)cc(N2C(=O)C3C4C=CC(C4)C3C2=O)c1 (stereo not drawn)	True
Cc1ccc(C2CC(c3ccc(C)cc3)n3nc(N)nc3N2)cc1 (stereo not drawn)	False
COc1cccc(NC(=O)c2ccccc2NS(C)(=O)=O)c1	True
CCC(C(=O)Nc1ccccc1C(=O)N1CCCC1)N1C(=O)c2ccccc2C1=O (stereo not drawn)	True
COc1ccc(OC)c(C2=NOC(C(=O)Nc3cc(C)nn3-c3ccccc3)C2)c1 (stereo not drawn)	False
Cc1cc(C)n2cc(CSCc3ccco3)nc2n1	True
O=C1CC(c2ccsc2)c2cc3c(cc2N1)OCCO3 (stereo not drawn)	False
CCOC(=O)c1ccc(NC(=O)CCNc2c(N3CCCC3)c(=O)c2=O)cc1	False
CN1CCN(C(=O)C2(NC(=O)Nc3cccc(F)c3)CCCCC2)CC1	False
O=C(OCC#CCSc1nc2ccccc2o1)c1ccco1	True
N#Cc1c(-c2ccc3c(c2)OCO3)csc1N	True
CCn1c(SCc2nc(-c3cccs3)no2)nnc1-c1c[nH]c2ccccc12	True
COc1ccccc1-n1c(SCC(N)=O)nnc1-c1ccccc1	True
COc1cc(C2c3c(n[nH]c3C)C(=O)N2c2ccc(C)cc2)ccc1O (stereo not drawn)	False
COc1ccc(C(NC(=O)c2ccco2)c2ccc(OC)c(OC)c2)cc1 (stereo not drawn)	True
O=c1c2ccccc2nc(SCc2nc(-c3ccccc3)no2)n1-c1ccc(F)cc1	False
Cc1[nH]c(=O)[nH]c(=O)c1S(=O)(=O)N1CCCC(C(=O)NCc2ccco2)C1 (stereo not drawn)	True
Cc1ccc2c(c1)c1c3n2CC(=C2C(=O)OC(C)(C)OC2=O)NC3CCC1 (stereo not drawn)	False
O=c1cc(-c2ccccc2)[nH]c2nc3ccccc3n12	True
COc1ccccc1NC(=O)NCc1ccc2c(c1)OCO2	True

----------
experiment: blockers of RIG-like receptor reporter activation – cell-based, Sendai virus stimulus, luciferase, 10K MLSCN set, TLR/RLR signaling modifier project, primary screen (AID 602276); conditions: HEK293 RL24 IRF3 luciferase reporter, at 10 µM, stronger effect = higher value;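 further: firefly luciferase from ISG56 promoter only with Renilla not read in this screen; 0% = Sendai virus plus DMSO and 100% = medium plus DMSO without virus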
Label rule, in plain words: inhibition of 10% and up is true (1), under 10% is false (0).

COMPOUND	CATEGORY LABEL
CCCC(=O)Nc1ccccc1NC(=O)CCC	true (1)
c1nc(NCC2(N3CCOCC3)CCCCC2)c2ccsc2n1	false (0)
Cc1ccc2cc(C(c3nnnn3C3CCCC3)N3CCN(c4ccc(F)cc4)CC3)c(=O)[nH]c2c1 (stereo unspecified)	true (1)
CCOC(=O)N1CCN(C(=O)CN(Cc2ccccc2)S(=O)(=O)c2ccc(OC)c(C)c2)CC1	false (0)
Cc1nnc(NC(=O)CCC(=O)N2CCC(C)CC2)s1	true (1)
NC(=O)CSc1nnc(-c2cnccn2)n1-c1ccccc1	true (1)
COc1cccc(S(=O)(=O)Nc2cccnc2)c1	false (0)
CCN(Cc1cc2cc(OC)ccc2[nH]c1=O)C(=O)Cc1ccc(OC)cc1	true (1)
Cc1cc2ncn(S(=O)(=O)c3ccc(S(=O)(=O)N4CCOCC4)cc3)c2cc1C	false (0)
CCN(CC)C(=O)Cn1ncc2c1-c1ccccc1OC2	false (0)
COc1ccccc1N1CCN(C(=O)C2CC=CCC2C(=O)O)CC1 (stereo unspecified)	true (1)
